- assayed target: Estrogen receptor beta (Homo sapiens)
- Sequence (Q92731 whole entry): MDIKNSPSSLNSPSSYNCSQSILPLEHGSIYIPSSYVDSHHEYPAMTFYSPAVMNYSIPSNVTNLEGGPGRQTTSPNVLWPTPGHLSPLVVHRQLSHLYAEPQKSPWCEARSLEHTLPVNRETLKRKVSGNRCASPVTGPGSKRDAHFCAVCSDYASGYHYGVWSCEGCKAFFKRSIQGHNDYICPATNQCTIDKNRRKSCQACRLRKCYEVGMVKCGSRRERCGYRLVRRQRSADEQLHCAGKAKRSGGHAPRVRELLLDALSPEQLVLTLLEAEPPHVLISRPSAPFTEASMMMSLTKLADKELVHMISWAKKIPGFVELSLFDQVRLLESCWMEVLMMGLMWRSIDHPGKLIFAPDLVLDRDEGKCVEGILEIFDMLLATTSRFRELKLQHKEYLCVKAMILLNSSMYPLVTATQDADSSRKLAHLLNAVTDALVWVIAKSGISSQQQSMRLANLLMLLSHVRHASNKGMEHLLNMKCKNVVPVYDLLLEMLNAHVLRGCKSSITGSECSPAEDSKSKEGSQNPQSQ
- protocol text: Inhibition of binding to human estrogen receptor beta
pIC50: −log10 of the molar value.
reported metric: pIC50

> print(dat)
                                   compound  observed.value
1  CN(C)c1cccc(N2CCc3cc(O)ccc3C2c2ccc(OCCN3CCCCC3)cc2)c1 (stereo unspecified)            5.51

---

- assayed target: Estrogen receptor (Homo sapiens)
reported metric: IC50 (nM)

> print(dat)
                                   compound  reported.metric  output.unit  observed.value
1  CN(C)c1cccc(N2CCc3cc(O)ccc3C2c2ccc(OCCN3CCCCC3)cc2)c1 (stereo unspecified)             IC50           nM            19.8

---

- assayed target: Estrogen receptor (Homo sapiens)
- Sequence (P03372 whole entry): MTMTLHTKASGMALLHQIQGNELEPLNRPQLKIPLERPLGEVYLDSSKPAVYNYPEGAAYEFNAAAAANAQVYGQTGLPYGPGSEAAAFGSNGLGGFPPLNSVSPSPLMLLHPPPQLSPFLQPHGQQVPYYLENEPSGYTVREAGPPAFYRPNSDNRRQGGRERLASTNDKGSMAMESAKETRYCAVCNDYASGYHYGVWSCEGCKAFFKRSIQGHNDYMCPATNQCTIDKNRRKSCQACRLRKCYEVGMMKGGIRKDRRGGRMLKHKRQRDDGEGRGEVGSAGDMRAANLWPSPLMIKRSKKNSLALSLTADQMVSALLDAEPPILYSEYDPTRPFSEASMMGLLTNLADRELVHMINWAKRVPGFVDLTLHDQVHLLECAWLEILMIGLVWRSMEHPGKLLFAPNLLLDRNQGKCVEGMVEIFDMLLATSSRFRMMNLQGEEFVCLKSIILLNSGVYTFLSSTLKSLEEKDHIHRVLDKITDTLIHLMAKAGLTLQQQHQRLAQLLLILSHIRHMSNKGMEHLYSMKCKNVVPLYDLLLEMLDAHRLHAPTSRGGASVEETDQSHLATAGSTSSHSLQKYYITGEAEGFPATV
reported metric: pIC50(uM)

> print(dat)
                                    compound  reported.metric  observed.value
 1  CC(C)c1ccc(N2CCc3cc(O)ccc3C2(C)c2ccc(OCCN3CCCC3)cc2)cc1 (stereo unspecified)        pIC50(uM)           2.585
 2  CC1(c2ccc(OCCN3CCCC3)cc2)c2ccc(O)cc2CCN1c1cccc(F)c1 (stereo unspecified)        pIC50(uM)           2.523
 3  CC1(c2ccc(OCCN3CCCCC3)cc2)c2ccc(O)cc2CCN1c1cccc(Cl)c1 (stereo unspecified)        pIC50(uM)           2.347
 4  CC1(c2ccc(OCCN3CCCC3)cc2)c2ccc(O)cc2CCN1c1ccccc1 (stereo unspecified)        pIC50(uM)           2.745
 5  CC1(c2ccc(OCCN3CCCCC3)cc2)c2ccc(O)cc2CCN1c1cccc(O)c1 (stereo unspecified)        pIC50(uM)           3.155
 6  CC1(c2ccc(OCCN3CCCCC3)cc2)c2ccc(O)cc2CCN1c1ccc(Cl)cc1 (stereo unspecified)        pIC50(uM)           2.509
 7  CC1(c2ccc(OCCN3CCCC3)cc2)c2ccc(O)cc2CCN1c1ccc(F)cc1 (stereo unspecified)        pIC50(uM)           2.796
 8  CC1(c2ccc(OCCN3CCCCCC3)cc2)c2ccc(O)cc2CCN1c1ccccc1 (stereo unspecified)        pIC50(uM)           2.824
 9  CC(C)c1ccc(N2CCc3cc(O)ccc3C2(C)c2ccc(OCCN3CCCCC3)cc2)cc1 (stereo unspecified)        pIC50(uM)           2.284
10  CC1(c2ccc(OCCN3CCCCC3)cc2)c2ccc(O)cc2CCN1c1ccccc1 (stereo unspecified)        pIC50(uM)           2.585
11  CC1(c2ccc(OCCN3CCCC3)cc2)c2ccc(O)cc2CCN1c1cccc(Cl)c1 (stereo unspecified)        pIC50(uM)           2.538

Origin of values: ChEMBL document CHEMBL1141983
